- Organism: Mus musculus
- Test Description: Analgesic efficacy is expressed as percentage of that morphine, done on mouse.
- Format: functional
Field: Analgesic efficacy compared to morphine. Provide a value for each of the compounds that follow.
Give bare numbers, in %.

Clc1cncc(N2CC3CCC(C2)N3)n1 57
Clc1nccc(N2CC3CCC(C2)N3)n1 82

I'm hoping you can list Analgesic efficacy compared to morphine for every compound here, please.
1. Clc1cccnc1N1CC2CCC(C1)N2
2. CSc1nc(Cl)cc(N2CC3CCC(C2)N3)n1
3. CN1CC[C@]23c4c5ccc(O)c4O[C@H]2[C@@H](O)C=C[C@H]3[C@H]1C5
4. Clc1ccc(N2C3CCC2CNC3)nn1
5. Clc1cc(N2CC3CCC(C2)N3)ncn1
6. Clc1cccc(N2CC3CCC(C2)N3)n1
7. CCN1C2CCC1CN(c1ccc(Cl)nn1)C2
8. Clc1ccnc(N2CC3CCC(C2)N3)n1

a:
[124, 149, 100, 107, 127, 116, 61, 60]

----------
Field: Licking latency. Provide a value for each of the molecules that follow.
- System: Mus musculus
- Test Description: Licking latency was measured after 45 min treatment (at dose=5 mg/kg) by using mouse hot plate test
- Type: functional
Reply with the number and its unit after it.

// below: answered molecules
Clc1ccnc(N2CC3CCC(C2)N3)n1 15.6 s
Clc1ccc(N2CC3CCC(C2)N3)nn1 26.5 s
Clc1cncc(N2CC3CCC(C2)N3)n1 15.7 s
Clc1cccnc1N1CC2CCC(C1)N2 18.3 s

For record CSc1nc(Cl)cc(N2CC3CCC(C2)N3)n1 the listed Licking latency is 18.7 s

----------
- Tested on: Mus musculus
- Test Description: Licking latency was measured after 15 min treatment (at dose=10 mg/kg) by using mouse hot plate test
- Format: functional
Licking latency vs 30 s: less than gives condition met; not less than gives condition not met.

Clc1cc(N2CC3CCC(C2)N3)ncn1 condition met
Clc1ccc(N2C3CCC2CNC3)nn1 condition met
Clc1cncc(N2CC3CCC(C2)N3)n1 condition met
CCN1C2CCC1CN(c1ccc(Cl)nn1)C2 condition met
Clc1ccnc(N2CC3CCC(C2)N3)n1 condition met

q: Answer whether the molecule Clc1nccc(N2CC3CCC(C2)N3)n1 has Licking latency strictly less than 30 s
a: condition not met

q: Answer whether the molecule Clc1ccc(N2CC3CCC(C2)N3)nn1 has Licking latency strictly less than 30 s
a: condition not met

q: Answer whether the molecule CCC(=O)N1CC2CCC(C1)N2c1ccc(Cl)nn1 has Licking latency strictly less than 30 s
a: condition met

----------
- Test system: Mus musculus
- Test Description: Licking latency was measured after 45 min treatment (at dose=10 mg/kg) by using mouse hot plate test
- Assay type: functional
Value Kind: Licking latency (s)
One number for each entry, in s.

CCC(=O)N1CC2CCC(C1)N2c1ccc(Cl)nn1 16.1
Clc1nccc(N2CC3CCC(C2)N3)n1 24.3
Clc1cc(N2CC3CCC(C2)N3)ncn1 19.6
Clc1cncc(N2CC3CCC(C2)N3)n1 22.3
CCN1C2CCC1CN(c1ccc(Cl)nn1)C2 16.4

I'm hoping you can list Licking latency for every molecule here, please.
1. Clc1ccnc(N2CC3CCC(C2)N3)n1
2. Clc1ccc(N2C3CCC2CNC3)nn1

a:
1. 22.1
2. 17.4

From: ChEMBL document CHEMBL1131482
